- target-desc: human JAK3 (a.a. 781-1124) (Homo sapiens)
- Construct: JAK3 (a.a. 781-1124); His tag (N); made in house; host or cells: insect cells (baculovirus)
- Sequence (P52333 781-1124): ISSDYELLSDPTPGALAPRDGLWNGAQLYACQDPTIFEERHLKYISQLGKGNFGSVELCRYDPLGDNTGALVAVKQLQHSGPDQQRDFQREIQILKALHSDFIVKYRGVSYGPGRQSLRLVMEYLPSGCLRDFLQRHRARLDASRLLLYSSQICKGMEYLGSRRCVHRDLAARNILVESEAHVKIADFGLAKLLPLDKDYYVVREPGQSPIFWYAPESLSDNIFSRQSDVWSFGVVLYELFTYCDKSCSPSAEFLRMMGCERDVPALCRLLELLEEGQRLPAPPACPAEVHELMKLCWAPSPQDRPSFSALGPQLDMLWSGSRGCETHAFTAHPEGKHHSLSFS
- assay-details: In vitro JAK kinase assay (HTRF, phosphorylation of a biotinylated peptide), JAK3
- Assay type: biochemical
- condition-details: Table B1
pIC50: −log10 of the molar value.
Could you please report measured pIC50 for the items listed next?

pIC50 reading for N#CC1(c2ccccc2)CCN(C(=O)Nc2ccc3cc2CCc2cncc(c2)Nc2ncc(Cl)c(n2)N3)CC1 [Example B322, bis(trifluoroacetate)] : < 6.40

Just so you know, measured pIC50 for CN(Cc1ccc2cc1CCc1cncc(c1)Nc1ncc(Cl)c(n1)N2)C(=O)C1CCN(C(=O)Nc2ccccc2)CC1 [Example B337, bis(trifluoroacetate)] came out at < 6.70

// CN(Cc1ccc2cc1CCc1cncc(c1)Nc1ncc(Cl)c(n1)N2)CC1CCNCC1 : pIC50 value = < 6.40

* * *

- target-desc: TYK2 (Homo sapiens)
- Sequence (P29597 whole entry): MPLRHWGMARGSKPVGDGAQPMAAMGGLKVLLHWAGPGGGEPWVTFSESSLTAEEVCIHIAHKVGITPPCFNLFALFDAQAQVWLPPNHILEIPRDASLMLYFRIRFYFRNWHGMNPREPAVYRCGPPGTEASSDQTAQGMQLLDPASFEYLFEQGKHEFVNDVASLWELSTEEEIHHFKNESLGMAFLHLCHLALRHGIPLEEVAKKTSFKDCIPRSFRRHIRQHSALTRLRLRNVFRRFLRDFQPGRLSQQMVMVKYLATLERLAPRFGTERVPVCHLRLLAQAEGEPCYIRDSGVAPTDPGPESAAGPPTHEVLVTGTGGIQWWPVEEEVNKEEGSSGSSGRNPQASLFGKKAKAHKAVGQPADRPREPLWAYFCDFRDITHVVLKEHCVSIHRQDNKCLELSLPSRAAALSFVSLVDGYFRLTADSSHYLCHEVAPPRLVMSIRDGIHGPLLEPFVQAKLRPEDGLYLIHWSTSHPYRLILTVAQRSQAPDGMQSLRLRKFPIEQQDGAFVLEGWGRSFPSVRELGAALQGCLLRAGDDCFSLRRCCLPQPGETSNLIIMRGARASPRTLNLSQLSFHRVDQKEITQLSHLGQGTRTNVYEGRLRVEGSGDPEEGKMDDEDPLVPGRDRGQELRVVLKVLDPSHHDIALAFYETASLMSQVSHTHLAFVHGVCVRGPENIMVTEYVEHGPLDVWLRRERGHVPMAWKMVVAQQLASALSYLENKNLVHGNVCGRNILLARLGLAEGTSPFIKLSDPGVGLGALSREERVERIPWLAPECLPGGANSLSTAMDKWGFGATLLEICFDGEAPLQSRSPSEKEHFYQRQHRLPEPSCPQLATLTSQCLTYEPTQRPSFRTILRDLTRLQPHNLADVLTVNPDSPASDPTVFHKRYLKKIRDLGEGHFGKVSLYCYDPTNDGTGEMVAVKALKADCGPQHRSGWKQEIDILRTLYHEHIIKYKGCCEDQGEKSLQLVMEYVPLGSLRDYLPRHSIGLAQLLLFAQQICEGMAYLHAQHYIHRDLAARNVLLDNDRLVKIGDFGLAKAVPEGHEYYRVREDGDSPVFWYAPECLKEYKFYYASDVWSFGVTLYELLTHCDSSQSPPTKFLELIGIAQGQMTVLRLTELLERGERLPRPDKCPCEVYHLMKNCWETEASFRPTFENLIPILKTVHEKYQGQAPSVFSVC
- assay-details: TYK2 kinase inhibition (Table A1)
- Assay type: biochemical
pIC50: −log10 of the molar value. Counter-ions that a name gives are not always drawn.
# binarize pIC50: threshold 7 inclusive, high side t, low side f

Req: # bool: pIC50 of CCNC(=O)N1CCCC(C(=O)Nc2ccc3cc2CCc2cccc(c2)Nc2ncc(Cl)c(n2)N3)C1 (stereo not shown) [Example A49, trifluoroacetate] >= 7
Resp: t

Req: Decide: is the reported value of pIC50 for Cc1noc(C)c1NC(=O)N1CCC(CC(=O)Nc2ccc3cc2CCc2cncc(c2)Nc2ncc(Cl)c(n2)N3)CC1 [Example A145, bis(trifluoroacetate)] equal to or greater than 7?
Resp: t

Req: Form field: pIC50 at least 7? Entry: Cc1cc(C(=O)N2CCC(CCC(=O)Nc3ccc4cc3CCc3cccc(c3)Nc3ncc(Cl)c(n3)N4)CC2)no1 [Example A124, trifluoroacetate]
Resp: t

Req: Item O=C(COc1ccc2cc1CCc1cccc(c1)Nc1ncc(Cl)c(n1)N2)Nc1ccccc1 [Example A18, trifluoroacetate] with pIC50 of 7 or above?
Resp: t

Req: Does the reported pIC50 for O=C(COc1ccc2cc1CCc1cncc(c1)Nc1ncc(Cl)c(n1)N2)N1CCn2c(nnc2C(F)(F)F)C1 [Example A249, bis(trifluoroacetate)] fall at or above the 7 mark?
Resp: f

Req: Determine whether this molecule has pIC50 no lower than 7: CC(C)S(=O)(=O)N1CCC(CC(=O)Nc2ccc3cc2CCc2cncc(c2)Nc2ncc(Cl)c(n2)N3)CC1 [Example A97, bis(trifluoroacetate)]
Resp: t

Req: Can CN(C)S(=O)(=O)N1CCC(CC(=O)Nc2ccc3cc2CCc2cccc(c2)Nc2ncc(Cl)c(n2)N3)CC1 [Example A81, trifluoroacetate] be said to have pIC50 at or above 7?
Resp: t

Req: Tell me whether pIC50 is at least 7 here: O=C(Nc1ccc2cc1CCc1cccc(c1)Nc1ncc(Cl)c(n1)N2)C1CCNCC1 [Example A28, bis(trifluoroacetate)]
Resp: f

Req: Record Cc1cc(C(=O)N2CCC(CC(=O)Nc3ccc4cc3CCc3cncc(c3)Nc3ncc(Cl)c(n3)N4)CC2)no1 [Example A101, bis(trifluoroacetate)] ; criterion: pIC50 no lower than 7. Met?
Resp: t

Req: Tell me whether pIC50 is at least 7 here: COc1cccc(S(=O)(=O)N2CCC(CC(=O)Nc3ccc4cc3CCc3cncc(c3)Nc3ncc(Cl)c(n3)N4)CC2)c1 [Example A196, bis(trifluoroacetate)]
Resp: f

Req: Quick check, pIC50 >= 7? O=C(CC1CCN(C(=O)c2cccnc2)CC1)Nc1ccc2cc1CCc1cncc(c1)Nc1ncc(Cl)c(n1)N2 [Example A188, tris(trifluoroacetate)]
Resp: f

Req: Given N#Cc1ccc(S(=O)(=O)N2CCC(CC(=O)Nc3ccc4cc3CCc3cccc(c3)Nc3ncc(Cl)c(n3)N4)CC2)cc1 [Example A209, trifluoroacetate] , state whether its pIC50 is at least 7.
Resp: f

Req: // inclusive: pIC50 at least 7? input: O=S1(=O)Cc2cccc(c2)Nc2ncc(Cl)c(n2)Nc2cccc(c2)N1 [Example C9, trifluoroacetate]
Resp: f

Req: Decide: is the reported value of pIC50 for O=C(CC1CCN(c2nc3cccnc3o2)CC1)Nc1ccc2cc1CCc1cncc(c1)Nc1ncc(Cl)c(n1)N2 [Example A158, tris(trifluoroacetate)] equal to or greater than 7?
Resp: f

Values compiled from patent US8871753B2.
